Tested on: Factor 11 protein
assay_text: Factor 11 protein in monkey plasma by sandwich ELISA (Example 45)
Assay type: in vivo, cynomolgus monkeys
experimental_context: day 22; escalating dose regimen; plasma ELISA
metric_name: Inhibition of Factor 11 protein relative to the PBS control (%)

substance | reading
ISIS 417002: MOE gapmer, nucleobases 1275 to 1318 of SEQ ID NO: 1 (Table 8) (antisense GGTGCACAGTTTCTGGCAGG; MOE gapmer, wing and gap sizes not given here) | 2
ISIS 416864: MOE gapmer, nucleobases 1275 to 1318 of SEQ ID NO: 1 (Table 8) (antisense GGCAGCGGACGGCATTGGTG; MOE gapmer, wing and gap sizes not given here) | 7
ISIS 416838: MOE gapmer, nucleobases 1018 to 1042 of SEQ ID NO: 1 (Table 6) (antisense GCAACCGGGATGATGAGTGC; MOE gapmer, wing and gap sizes not given here) | 5
ISIS 416850: MOE gapmer, nucleobases 1275 to 1318 of SEQ ID NO: 1 (Table 8) (antisense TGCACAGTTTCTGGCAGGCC; MOE gapmer, wing and gap sizes not given here) | 11
ISIS 416858: MOE gapmer, nucleobases 1275 to 1318 of SEQ ID NO: 1 (Table 8) (antisense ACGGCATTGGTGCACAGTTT; MOE gapmer, wing and gap sizes not given here) | 23

* * *

experimental_context: mouse, in vivo, sc, 50 mg/kg
Listed below: HCT values for each entry.

substance | HCT (%)
ISIS 416853: MOE gapmer, nucleobases 1275 to 1318 of SEQ ID NO: 1 (Table 8) (antisense TTGGTGCACAGTTTCTGGCA; MOE gapmer, wing and gap sizes not given here) | 56
ISIS 416854: MOE gapmer, nucleobases 1275 to 1318 of SEQ ID NO: 1 (Table 8) (antisense ATTGGTGCACAGTTTCTGGC; MOE gapmer, wing and gap sizes not given here) | 43
ISIS 416863: MOE gapmer, nucleobases 1275 to 1318 of SEQ ID NO: 1 (Table 8) (antisense CAGCGGACGGCATTGGTGCA; MOE gapmer, wing and gap sizes not given here) | 48
ISIS 416866: MOE gapmer, nucleobases 1275 to 1318 of SEQ ID NO: 1 (Table 8) (antisense CTGGCAGCGGACGGCATTGG; MOE gapmer, wing and gap sizes not given here) | 51

* * *

assay_text: Hematology assays in cynomolgus monkeys (Example 45)
Type: in vivo
experimental_context: day 50
Listed below: eosinophils values for each entry.
metric_name: eosinophils (%)

substance | metric_name | reading
ISIS 416864: MOE gapmer, nucleobases 1275 to 1318 of SEQ ID NO: 1 (Table 8) (antisense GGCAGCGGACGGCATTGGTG; MOE gapmer, wing and gap sizes not given here) | eosinophils | 0.7
ISIS 416858: MOE gapmer, nucleobases 1275 to 1318 of SEQ ID NO: 1 (Table 8) (antisense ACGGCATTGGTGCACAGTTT; MOE gapmer, wing and gap sizes not given here) | eosinophils | 0.4
ISIS 416838: MOE gapmer, nucleobases 1018 to 1042 of SEQ ID NO: 1 (Table 6) (antisense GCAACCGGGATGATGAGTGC; MOE gapmer, wing and gap sizes not given here) | eosinophils | 0.8
ISIS 416850: MOE gapmer, nucleobases 1275 to 1318 of SEQ ID NO: 1 (Table 8) (antisense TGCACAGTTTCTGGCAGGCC; MOE gapmer, wing and gap sizes not given here) | eosinophils | 1.2
ISIS 417002: MOE gapmer, nucleobases 1275 to 1318 of SEQ ID NO: 1 (Table 8) (antisense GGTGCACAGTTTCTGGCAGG; MOE gapmer, wing and gap sizes not given here) | eosinophils | 0.1

* * *

Test system: IL-1β, IL-6, IFN-γ, TNF-α, IL-8, MIP-1α, MCP-1, MIP-1β, RANTES
assay_text: Cytokine and chemokine assays in cynomolgus monkeys (Example 46)
Assay type: in vivo
experimental_context: day 55
Strand notation (5' to 3'): a small letter for the sugar, then the base; units joined by * are phosphorothioate-linked, units joined directly phosphodiester-linked; [ ] holds rarer units or linkages, { } end groups; capitals alone tell only the bases. e = 2'-O-(2-methoxyethyl) (MOE); [5mC] = 5-methylcytosine; d = 2'-deoxy (DNA)

substance | readout_units | MCP-1 level
ISIS 445522: 5-8-5 or 6-8-6 MOE microwalk gapmer (Table 44) (antisense eG*e[5mC]*eA*e[5mC]*eA*dG*dT*dT*dT*d[5mC]*dT*dG*dG*e[5mC]*eA*eG*eG*e[5mC]) | pg/mL | 592
ISIS 449709: 3-8-3, 4-8-4, 2-10-2, 3-10-3 or 4-10-4 MOE microwalk gapmer (Table 46) (antisense eG*e[5mC]*eA*e[5mC]*dA*dG*dT*dT*dT*d[5mC]*dT*dG*dG*d[5mC]*eA*eG*eG*e[5mC]) | pg/mL | 507
ISIS 416850: MOE gapmer, nucleobases 1275 to 1318 of SEQ ID NO: 1 (Table 8) (antisense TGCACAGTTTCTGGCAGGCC; MOE gapmer, wing and gap sizes not given here) | pg/mL | 887
ISIS 449711: 3-8-3, 4-8-4, 2-10-2, 3-10-3 or 4-10-4 MOE microwalk gapmer (Table 46) (antisense eA*e[5mC]*dA*dG*dT*dT*dT*d[5mC]*dT*dG*dG*d[5mC]*eA*eG) | pg/mL | 469

* * *

Listed below: fibrinogen levels values for each entry.
Tested on: fibrinogen
assay_text: Fibrinogen assay (Example 45)
Assay type: in vivo, cynomolgus monkeys
experimental_context: plasma; day 64; escalating dose regimen

substance | fibrinogen levels, mg/dL
ISIS 416864: MOE gapmer, nucleobases 1275 to 1318 of SEQ ID NO: 1 (Table 8) (antisense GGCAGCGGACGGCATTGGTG; MOE gapmer, wing and gap sizes not given here) | 218
ISIS 417002: MOE gapmer, nucleobases 1275 to 1318 of SEQ ID NO: 1 (Table 8) (antisense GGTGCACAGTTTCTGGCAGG; MOE gapmer, wing and gap sizes not given here) | 236
ISIS 416858: MOE gapmer, nucleobases 1275 to 1318 of SEQ ID NO: 1 (Table 8) (antisense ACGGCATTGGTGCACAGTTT; MOE gapmer, wing and gap sizes not given here) | 236
ISIS 416838: MOE gapmer, nucleobases 1018 to 1042 of SEQ ID NO: 1 (Table 6) (antisense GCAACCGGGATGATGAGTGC; MOE gapmer, wing and gap sizes not given here) | 190
ISIS 416850: MOE gapmer, nucleobases 1275 to 1318 of SEQ ID NO: 1 (Table 8) (antisense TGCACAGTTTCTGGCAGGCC; MOE gapmer, wing and gap sizes not given here) | 190

* * *

assay_text: Hematology assays in cynomolgus monkeys (Example 46)
Format: in vivo
experimental_context: Day 55
Strand notation (5' to 3'): a small letter for the sugar, then the base; units joined by * are phosphorothioate-linked, units joined directly phosphodiester-linked; [ ] holds rarer units or linkages, { } end groups; capitals alone tell only the bases. e = 2'-O-(2-methoxyethyl) (MOE); [5mC] = 5-methylcytosine; d = 2'-deoxy (DNA)
metric_name: monocytes

substance | reading
ISIS 449710: 3-8-3, 4-8-4, 2-10-2, 3-10-3 or 4-10-4 MOE microwalk gapmer (Table 46) (antisense e[5mC]*eA*e[5mC]*dA*dG*dT*dT*dT*d[5mC]*dT*dG*dG*d[5mC]*eA*eG*eG) | 1.6%
ISIS 449707: 3-8-3, 4-8-4, 2-10-2, 3-10-3 or 4-10-4 MOE microwalk gapmer (Table 46) (antisense e[5mC]*eA*e[5mC]*eA*dG*dT*dT*dT*d[5mC]*dT*dG*dG*e[5mC]*eA*eG*eG) | 4.8%

* * *

experimental_context: mouse, in vivo, sc, 50 mg/kg
e = 2'-O-(2-methoxyethyl) (MOE); d = 2'-deoxy (DNA)

substance | Neutrophil
ISIS 445530: 5-8-5 or 6-8-6 MOE microwalk gapmer (Table 44) (antisense GCATTGGTGCACAGTTTC; sugars from the 5' end e5 d8 e5, backbone and methylation of C not given here) | 930
ISIS 445505: 5-8-5 or 6-8-6 MOE microwalk gapmer (Table 44) (antisense CGGCATTGGTGCACAGTTTC; sugars from the 5' end e6 d8 e6, backbone and methylation of C not given here) | 818

* * *

assay_text: Body and organ weights of cynomolgus monkeys (Example 46)
Format: in vivo
experimental_context: day −14
Description: Groups, each consisting of two male and two female monkeys, were injected subcutaneously with 25 mg/kg of ISIS 416850, ISIS 449709, ISIS 445522, ISIS 449710, ISIS 449707, ISIS 449711, ISIS 449708, 416858, and ISIS 445531. […] Body weights were taken 14 days and 7 days before the start of treatment and were then measured weekly throughout the treatment period. […]
Strand notation (5' to 3'): a small letter for the sugar, then the base; units joined by * are phosphorothioate-linked, units joined directly phosphodiester-linked; [ ] holds rarer units or linkages, { } end groups; capitals alone tell only the bases. e = 2'-O-(2-methoxyethyl) (MOE); [5mC] = 5-methylcytosine; d = 2'-deoxy (DNA)

substance | readout_units | body weight
ISIS 449707: 3-8-3, 4-8-4, 2-10-2, 3-10-3 or 4-10-4 MOE microwalk gapmer (Table 46) (antisense e[5mC]*eA*e[5mC]*eA*dG*dT*dT*dT*d[5mC]*dT*dG*dG*e[5mC]*eA*eG*eG) | g | 2072
ISIS 445522: 5-8-5 or 6-8-6 MOE microwalk gapmer (Table 44) (antisense eG*e[5mC]*eA*e[5mC]*eA*dG*dT*dT*dT*d[5mC]*dT*dG*dG*e[5mC]*eA*eG*eG*e[5mC]) | g | 2050
ISIS 449710: 3-8-3, 4-8-4, 2-10-2, 3-10-3 or 4-10-4 MOE microwalk gapmer (Table 46) (antisense e[5mC]*eA*e[5mC]*dA*dG*dT*dT*dT*d[5mC]*dT*dG*dG*d[5mC]*eA*eG*eG) | g | 2097
ISIS 416858: MOE gapmer, nucleobases 1275 to 1318 of SEQ ID NO: 1 (Table 8) (antisense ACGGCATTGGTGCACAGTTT; MOE gapmer, wing and gap sizes not given here) | g | 2073
ISIS 449708: 3-8-3, 4-8-4, 2-10-2, 3-10-3 or 4-10-4 MOE microwalk gapmer (Table 46) (antisense eA*e[5mC]*eA*dG*dT*dT*dT*d[5mC]*dT*dG*dG*e[5mC]*eA*eG) | g | 2096
ISIS 449711: 3-8-3, 4-8-4, 2-10-2, 3-10-3 or 4-10-4 MOE microwalk gapmer (Table 46) (antisense eA*e[5mC]*dA*dG*dT*dT*dT*d[5mC]*dT*dG*dG*d[5mC]*eA*eG) | g | 2049
ISIS 449709: 3-8-3, 4-8-4, 2-10-2, 3-10-3 or 4-10-4 MOE microwalk gapmer (Table 46) (antisense eG*e[5mC]*eA*e[5mC]*dA*dG*dT*dT*dT*d[5mC]*dT*dG*dG*d[5mC]*eA*eG*eG*e[5mC]) | g | 2044
ISIS 416850: MOE gapmer, nucleobases 1275 to 1318 of SEQ ID NO: 1 (Table 8) (antisense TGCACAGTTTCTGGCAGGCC; MOE gapmer, wing and gap sizes not given here) | g | 2061
ISIS 445531: 5-8-5 or 6-8-6 MOE microwalk gapmer (Table 44) (antisense eG*eG*e[5mC]*eA*eT*dT*dG*dG*dT*dG*d[5mC]*dA*d[5mC]*eA*eG*eT*eT*eT) | g | 2079
